# measured-on: ERα (Homo sapiens, UniProt P03372)
# Sequence (P03372 whole entry): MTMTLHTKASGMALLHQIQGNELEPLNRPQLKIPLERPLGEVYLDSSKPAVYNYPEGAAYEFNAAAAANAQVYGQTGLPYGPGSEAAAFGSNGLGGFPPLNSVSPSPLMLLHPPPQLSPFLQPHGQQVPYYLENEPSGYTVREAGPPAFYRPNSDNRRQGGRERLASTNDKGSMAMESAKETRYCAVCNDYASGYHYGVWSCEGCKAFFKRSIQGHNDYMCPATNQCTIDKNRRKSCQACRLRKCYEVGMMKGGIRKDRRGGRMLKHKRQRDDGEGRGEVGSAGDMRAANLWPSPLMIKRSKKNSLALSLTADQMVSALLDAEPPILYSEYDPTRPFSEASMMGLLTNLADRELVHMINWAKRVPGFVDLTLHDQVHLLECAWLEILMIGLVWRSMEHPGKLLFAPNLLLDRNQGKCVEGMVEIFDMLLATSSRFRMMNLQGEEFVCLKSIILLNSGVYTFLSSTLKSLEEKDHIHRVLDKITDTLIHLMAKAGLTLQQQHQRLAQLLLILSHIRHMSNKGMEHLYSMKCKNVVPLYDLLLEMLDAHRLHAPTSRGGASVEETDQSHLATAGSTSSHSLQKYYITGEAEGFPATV
# test-name: 3×ERE-luciferase reporter gene assay in HEK 293 T cells, ERα
# particulars: against 10^-8 M E2, read-out: Antagonist mode ERα IC50
pIC50: −log10 of the molar value.
measurement-name: pIC50

[Q] Which pIC50 value belongs to Oc1ccc(-c2ccc(-c3ccc(O)cc3Cl)[se]2)c(Cl)c1 ?
[A] < 5.00

* * *

Parameter: IC50. Scope: all listed entries.
# System: exsheathed third-stage larvae (xL3s) of H. contortus
# test-name: xL3 motility assay (whole-organism screen and dose-response)
# Format: cell-based, Haemonchus contortus
# particulars: Haemonchus contortus, 72 h; read-out: xL3 motility (IC50s in μM)
Just the number in µM, nothing appended.

- molecule: "C[C@](C#N)(COc1cc(C#N)ccc1C(F)(F)F)NC(=O)c1ccc(SC(F)(F)F)cc1 [Monepantel, reference compound]"
  scale-unit: "µM"
  IC50: 0.4
- molecule: "CO/N=C1\\C[C@]2(C[C@@H]3C[C@@H](C/C=C(\\C)C[C@@H](C)/C=C/C=C4\\CO[C@@H]5[C@H](O)C(C)=C[C@@H](C(=O)O3)[C@]45O)O2)O[C@H](/C(C)=C/C(C)C)[C@H]1C [Moxidectin, reference compound]"
  scale-unit: "µM"
  IC50: 2.3
- molecule: "Cc1cc(O)ccc1-c1ccc(-c2ccc(O)cc2F)s1 [MJ-22]"
  scale-unit: "µM"
  IC50: 9.6

Let's switch to this molecule now.
[Q] Which IC50 value belongs to Oc1ccc(-c2cscc2-c2ccc(O)cc2Cl)c(Cl)c1 [MJ-17] ?
[A] 23.8
